# Tested on: CEM cells HIV-1 protection, formazan growth assay
# assayProtocol: NCI AIDS Antiviral Assay;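 active = compounds giving half or more protection of infected cells from virus-caused growth loss, again on retest; inactive = the rest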
# Protocol: The ability of compounds to protect human CEM cells from HIV-1 infection is measured as a screen for new compounds capable of inhibiting the HIV virus. Five concentrations of drug were tested on uninfected and infected cells and cell growth was measured using a soluble formazan assay. […] Compounds that provided at least 50% protection were retested. Compounds that provided at least 50% protection on retest were listed as moderately active. […]
Thanks in advance; please answer with one of these: active, inactive

Examples from the recorded data:
Nc1ccc(C(=O)NN2C(=O)C(Cl)C2c2cccc([N+](=O)[O-])c2)cc1 (configuration not stated) ... inactive
NC(=O)C(=CNC(=S)NCc1ccccc1)C(N)=O ... inactive
COC(=O)Cc1cc(=O)n2c3ccccc3n(C)c2c1C#N ... inactive
COc1cc2cc3c4c(cc(OC)c(OC)c4c2cc1OC)CCN3C(=O)CCCC(=O)O ... inactive
COc1cc2c(c(OC)c1OC)C(c1ccc3c(c1)OCO3)C1COC(=O)C1C2 (configuration not stated) ... inactive
CC(C)OC(=S)SSC(=S)NCCNC(=S)SSC(=S)OC(C)C ... inactive
CC(C)NCC1CCc2cc(CO)c([N+](=O)[O-])cc2N1 (configuration not stated) ... inactive
CC(=O)OC1CC2C(C)(CCC3C2(C)CCC2(C)C4CC(C)(C)CCC4(C)CCC32C)C1C (configuration not stated) ... inactive

Any idea what this test logged for N#CCCN(CCCCN(CCC#N)C(=O)Nc1ccccc1)C(=O)Nc1ccccc1 ?
inactive

Any idea what this test logged for COC(=O)c1onc(-c2c(OC)cc(OC)cc2OC)c1C(=O)OC ?
inactive

Any idea what this test logged for NCCCS(=O)(=O)O ?
inactive

Any idea what this test logged for Cc1ccccc1N=Nc1ccc(N/N=C2/CCCNC2=O)c(C)c1 ?
inactive

Any idea what this test logged for Cc1cn(C2COC(C)(CO)O2)c(=O)[nH]c1=O (configuration not stated) ?
inactive

Any idea what this test logged for CC1OC(O[C@H]2/C=C/C=C/C=C/C=C/C=C/C=C/C=C/[C@H](C)[C@@H](O)[C@@H](C)[C@H](C)OC(=O)C[C@H](O)C[C@H](O)CC[C@@H](O)[C@H](O)C[C@H](O)C[C@]3(O)C[C@H](O)[C@@H](C(=O)O)[C@H](C2)O3)C(O)C(N)C1O (some centres not stated) ?
active

Any idea what this test logged for COC1/C=C/OC2(C)Oc3c(C)c(O)c4c(O)c(c(/C=N/N5CCOCC5)c(O)c4c3C2=O)NC(=O)C(C)=C/C=C\C(C)C(O)C(C)C(O)C(C)C(O)C1C (configuration not stated) ?
inactive

Any idea what this test logged for COc1cc(NCCN=C(N)NC#N)c2ncccc2c1 ?
inactive

Any idea what this test logged for COc1cc(/C=C/c2ccnc3ccccc23)ccc1N(C)C ?
inactive

Any idea what this test logged for CCNC(=S)Nc1c(C#N)c2n(c1C(=O)OCC)CCCCC2 ?
inactive

Any idea what this test logged for CCCCCCCCCCCCCCCCCCOP(=O)(O)OCCC=C(c1cc(Cl)c(O)c(C(=O)O)c1)c1cc(Cl)c(O)c(C(=O)O)c1 ?
inactive

###

# pIC50 annotations
# Test system: CEM cells HIV-1 protection, formazan growth assay
# assayProtocol: NCI AIDS Antiviral Assay
# testSettings: measured here: growth of uninfected CEM cells
Reminder that pIC50 is minus the log10 of a molar concentration.

# annotated cases, reported pIC50 shown
CCOC(=O)/C(=C/c1ccc([N+](=O)[O-])cc1)C(=O)c1ccccc1 ... 4.87
CCOC(=O)C1=CCOc2cc(N(C)C)ccc21 ... 3.98
Cn1c(=O)c2c(nc3[nH]c(=O)c(Br)cn32)n(C)c1=O ... 4.69
Cc1cc(NCCCCCCCCNc2cc(C)nc3cc(N)ccc23)c2ccc(N)cc2n1 ... 5.33
COc1cc(OC)c(OC)cc1/C=C\c1ccnc2ccccc12 ... 5.83

Shift focus to the following entry.
Provide measured pIC50 value, entry: O=C1CSC(c2ccccc2)C1C(=O)c1ccc(NCc2nc3ccccc3[nH]2)cc1 (stereo unspecified)
5.06

Sourced from PubChem BioAssay AID179
